test system: Vero E6 infected with SARS-CoV-2; assay: inhibition of SARS-CoV-2 cytopathic effect; higher = more antiviral protection, active = above 15; conditions: 10000 nM; 48 h
Classes used: TRUE = active, FALSE = inactive

compound	category
N=C(N)NCCC[C@H](NC(=O)[C@@H]1CCCN1C(=O)[C@@H]1CSSC[C@H](N)C(=O)N[C@@H](Cc2ccc(O)cc2)C(=O)N[C@@H](Cc2ccccc2)C(=O)N[C@@H](CCC(N)=O)C(=O)N[C@@H](CC(N)=O)C(=O)N1)C(=O)NCC(N)=O	FALSE
O=c1[nH]cnc2nc[nH]c12	FALSE
N=C1CCCN1Cc1[nH]c(=O)[nH]c(=O)c1Cl	FALSE
CCn1cc(C(=O)O)c(=O)c2cc(F)c(N3CCN(C)CC3)cc21	FALSE
CN1CCCN(C(c2ccccc2)c2ccc(Cl)cc2)CC1 (centres undefined)	FALSE
CC(C)[C@H](CO)Nc1nc(Nc2ccc(C(=O)O)c(Cl)c2)c2ncn(C(C)C)c2n1	FALSE
COc1cc2c(Oc3ccc4[nH]c(C)cc4c3F)ccnc2cc1OCC1(N)CC1	FALSE
CC#CCOC(=O)c1c(C)nc2sc3c(c2c1N)CCC(O)C3 (centres undefined)	FALSE
CNC1CC(N)C(O)C(OC2OC(CO)C(O)C3OC4(OC(C(N)CO)C(O)C(O)C4O)OC23)C1O (centres undefined)	FALSE
C[S+]([O-])CCCCN=C=S (centres undefined)	TRUE
CCCC[C@@]1(C2CCCC2)Cc2cc(OCCCC(=O)O)c(Cl)c(Cl)c2C1=O	FALSE
CC(C)CN(C[C@@H](O)[C@H](Cc1ccccc1)NC(=O)O[C@H]1CCOC1)S(=O)(=O)c1ccc(N)cc1	FALSE
O=C1CC2(CCCC2)CC(=O)N1CCNC[C@H]1COc2ccccc2O1	FALSE
CO[C@H]1C[C@@H]2CC[C@@H](C)[C@@](O)(O2)C(=O)C(=O)N2CCCC[C@H]2C(=O)O[C@H]([C@H](C)C[C@@H]2CC[C@H](n3cnnn3)[C@H](OC)C2)CC(=O)[C@H](C)/C=C(\C)[C@@H](O)[C@@H](OC)C(=O)[C@H](C)C[C@H](C)/C=C/C=C/C=C/1C	FALSE
O=c1ccn([C@@H]2O[C@H](CO)[C@@H](O)[C@H]2O)c(=O)[nH]1	FALSE
COc1ccc2ccc(=O)oc2c1CC=C(C)C	FALSE
N#CSc1cc(SC#N)c(N)nc1N	FALSE
Clc1ccc(C(c2ccccc2Cl)C(Cl)Cl)cc1 (centres undefined)	FALSE
C[N+](C)(C)CC(O)CC(=O)[O-] (centres undefined)	FALSE
CC(C)C[C@@H](C(=O)N[C@H](C(=O)OC1CCCC1)c1ccccc1)[C@H](O)C(=O)NO	FALSE
CN1[C@@H]2C[C@@H](OC(=O)[C@H](CO)c3ccccc3)C[C@H]1[C@@H]1O[C@@H]12	FALSE
O=C1C(=Cc2cccnc2)C(=O)c2ccccc21	FALSE
CC(C)[N+](C)(CCOC(=O)C1c2ccccc2Oc2ccccc21)C(C)C	FALSE
CC(C)(OCc1nn(Cc2ccccc2)c2ccccc12)C(=O)O	FALSE
COc1cccc([C@H](O)C2CCN(CCc3ccc(F)cc3)CC2)c1OC	FALSE
Cc1cc(O)c2c(c1)C(=O)c1cccc(O)c1C2=O	FALSE
CC#CC(=O)N1CCC[C@H]1c1nc(-c2ccc(C(=O)Nc3ccccn3)cc2)c2c(N)nccn12	FALSE
CCCCNC(=O)[C@@H]1Cc2ccccc2N1C(=O)[C@@H](N)CC [butabindide]	FALSE
COc1cc2nc(N3CCN(C(=O)c4ccco4)CC3)nc(N)c2cc1OC	FALSE

Source listed as the supplement of paper PMC13380429.
